// provenance: the supplement of paper PMC10307832

In this section, each of the compounds is paired with its reported relative viability.
Tested on: NCI-H2009
Test: relative viability (nuclei count vs DMSO), 5 days (fraction); higher = more cells survive
Settings: first compound 0.002 µM

{"COMPOUND": "CC(=O)O[C@@]12CO[C@@H]1C[C@H](O)[C@@]1(C)C(=O)[C@H](O)C3=C(C)[C@@H](OC(=O)[C@H](O)[C@@H](NC(=O)OC(C)(C)C)c4ccccc4)C[C@@](O)([C@@H](OC(=O)c4ccccc4)[C@H]21)C3(C)C [Docetaxel] + CC1(C)CCC(c2ccc(Cl)cc2)=C(CN2CCN(c3ccc(C(=O)NS(=O)(=O)c4ccc(N[C@H](CCN5CCOCC5)CSc5ccccc5)c(S(=O)(=O)C(F)(F)F)c4)cc3)CC2)C1 [Navitoclax] (partner 0.5 µM)", "relative viability": 0.892}
{"COMPOUND": "CC(=O)O[C@@]12CO[C@@H]1C[C@H](O)[C@@]1(C)C(=O)[C@H](O)C3=C(C)[C@@H](OC(=O)[C@H](O)[C@@H](NC(=O)OC(C)(C)C)c4ccccc4)C[C@@](O)([C@@H](OC(=O)c4ccccc4)[C@H]21)C3(C)C [Docetaxel] + CS(=O)(=O)CCNCc1ccc(-c2ccc3ncnc(Nc4ccc(OCc5cccc(F)c5)c(Cl)c4)c3c2)o1 [Lapatinib] (partner 2 µM)", "relative viability": 0.412}
{"COMPOUND": "CC(=O)O[C@@]12CO[C@@H]1C[C@H](O)[C@@]1(C)C(=O)[C@H](O)C3=C(C)[C@@H](OC(=O)[C@H](O)[C@@H](NC(=O)OC(C)(C)C)c4ccccc4)C[C@@](O)([C@@H](OC(=O)c4ccccc4)[C@H]21)C3(C)C [Docetaxel] + O=C(c1cc(Cc2n[nH]c(=O)c3ccccc23)ccc1F)N1CCN(C(=O)C2CC2)CC1 [Olaparib] (partner 8 µM)", "relative viability": 0.562}

###

Tested on: NCI-H1563
Assay: relative viability (nuclei count vs DMSO), 5 days (fraction); higher = more cells survive
Conditions: first compound 0.8 µM
QUANTITY MEASURED: relative viability

{"COMPOUND": "Cc1cnc(-c2cnc(NCCNc3ccc(C#N)cn3)nc2-c2ccc(Cl)cc2Cl)[nH]1 + Nc1nc2[nH]cc(CCc3ccc(C(=O)N[C@@H](CCC(=O)O)C(=O)O)cc3)c2c(=O)[nH]1 [Pemetrexed] (partner 0.2 µM)", "NUMERIC RESULT": 0.768}
{"COMPOUND": "O=c1[nH]c2ccccc2n1C1CCN(CCCC(c2ccc(F)cc2)c2ccc(F)cc2)CC1 [Pimozide] + COc1cccc2cc(-c3nc([C@H]4CC[C@H](C(=O)O)CC4)n4ncnc(N)c34)[nH]c12 [OSI-027] (partner 0.5 µM)", "NUMERIC RESULT": 0.817}
{"COMPOUND": "Cc1cnc(-c2cnc(NCCNc3ccc(C#N)cn3)nc2-c2ccc(Cl)cc2Cl)[nH]1 + C[C@@H](Oc1cc(-c2cnn(C3CCNCC3)c2)cnc1N)c1c(Cl)ccc(F)c1Cl [Crizotinib] (partner 1 µM)", "NUMERIC RESULT": 0.767}
{"COMPOUND": "Cc1cnc(-c2cnc(NCCNc3ccc(C#N)cn3)nc2-c2ccc(Cl)cc2Cl)[nH]1 + CS(=O)(=O)N1CCN(Cc2cc3nc(-c4cccc5[nH]ncc45)nc(N4CCOCC4)c3s2)CC1 [Pictilisib] (partner 1 µM)", "NUMERIC RESULT": 0.709}

###

System: HCC-366
Experiment: relative viability (nuclei count vs DMSO), 5 days (fraction); higher = more cells survive
Conditions: first compound 0.4 µM
Sorting guide: entries reporting relative viability beneath 0.3 go in the Fulfilled pile, the rest go in the Not fulfilled pile.

{"MOLECULE": "Cc1sc2c(c1C)C(c1ccc(Cl)cc1)=N[C@@H](CC(=O)OC(C)(C)C)c1nnc(C)n1-2 [JQ1] + C[C@@H](Oc1cc(-c2cnn(C3CCNCC3)c2)cnc1N)c1c(Cl)ccc(F)c1Cl [Crizotinib] (partner 1 µM)", "CATEGORY LABEL": "Not fulfilled"}
{"MOLECULE": "Cc1sc2c(c1C)C(c1ccc(Cl)cc1)=N[C@@H](CC(=O)OC(C)(C)C)c1nnc(C)n1-2 [JQ1] + C[C@]1(O)C[C@@H](c2nc(-c3ccc4ccc(-c5ccccc5)nc4c3)c3c(N)nccn32)C1 [Linsitinib] (partner 1 µM)", "CATEGORY LABEL": "Not fulfilled"}
{"MOLECULE": "Cc1sc2c(c1C)C(c1ccc(Cl)cc1)=N[C@@H](CC(=O)OC(C)(C)C)c1nnc(C)n1-2 [JQ1] + CC(C)C[C@H](NC(=O)[C@H](Cc1ccccc1)NC(=O)c1cnccn1)B(O)O [Bortezomib] (partner 0.002 µM)", "CATEGORY LABEL": "Not fulfilled"}
{"MOLECULE": "Cc1sc2c(c1C)C(c1ccc(Cl)cc1)=N[C@@H](CC(=O)OC(C)(C)C)c1nnc(C)n1-2 [JQ1] + Nc1ncn([C@H]2C[C@H](O)[C@@H](CO)O2)c(=O)n1 [Decitabine] (partner 2 µM)", "CATEGORY LABEL": "Not fulfilled"}
{"MOLECULE": "Cc1sc2c(c1C)C(c1ccc(Cl)cc1)=N[C@@H](CC(=O)OC(C)(C)C)c1nnc(C)n1-2 [JQ1] + O=C(c1cc(Cc2n[nH]c(=O)c3ccccc23)ccc1F)N1CCN(C(=O)C2CC2)CC1 [Olaparib] (partner 8 µM)", "CATEGORY LABEL": "Fulfilled"}
{"MOLECULE": "Cc1sc2c(c1C)C(c1ccc(Cl)cc1)=N[C@@H](CC(=O)OC(C)(C)C)c1nnc(C)n1-2 [JQ1] + COc1cc2c(Oc3ccc(NC(=O)C4(C(=O)Nc5ccc(F)cc5)CC4)cc3F)ccnc2cc1OCCCN1CCOCC1 [Foretinib] (partner 0.25 µM)", "CATEGORY LABEL": "Not fulfilled"}
{"MOLECULE": "Cc1sc2c(c1C)C(c1ccc(Cl)cc1)=N[C@@H](CC(=O)OC(C)(C)C)c1nnc(C)n1-2 [JQ1] + CS(=O)(=O)N1CCN(Cc2cc3nc(-c4cccc5[nH]ncc45)nc(N4CCOCC4)c3s2)CC1 [Pictilisib] (partner 1 µM)", "CATEGORY LABEL": "Fulfilled"}

###

Test system: SK-LU-1
Experiment: relative viability (nuclei count vs DMSO), 5 days (fraction); higher = more cells survive
Conditions: first compound 15.81 µM
In this section, each of the compounds is paired with its reported relative viability.
QUANTITY MEASURED: relative viability

{"COMPOUND": "O=C(O)CCCCC(CCSCc1ccccc1)SCc1ccccc1 (centres undefined) [CPI-613] + Cc1cc(Nc2cc(N3CCN(C)CC3)nc(Sc3ccc(NC(=O)C4CC4)cc3)n2)n[nH]1 [Tozasertib] (partner 0.1 µM)", "NUMERIC RESULT": 0.244}
{"COMPOUND": "O=C(O)CCCCC(CCSCc1ccccc1)SCc1ccccc1 (centres undefined) [CPI-613] + CC1(C)CCC(c2ccc(Cl)cc2)=C(CN2CCN(c3ccc(C(=O)NS(=O)(=O)c4ccc(N[C@H](CCN5CCOCC5)CSc5ccccc5)c(S(=O)(=O)C(F)(F)F)c4)cc3)CC2)C1 [Navitoclax] (partner 0.5 µM)", "NUMERIC RESULT": 0.586}
{"COMPOUND": "O=C(O)CCCCC(CCSCc1ccccc1)SCc1ccccc1 (centres undefined) [CPI-613] + Cc1nc(NC(=O)N2CCC[C@H]2C(N)=O)sc1-c1ccnc(C(C)(C)C(F)(F)F)c1 [Alpelisib] (partner 2 µM)", "NUMERIC RESULT": 0.849}
{"COMPOUND": "O=C(O)CCCCC(CCSCc1ccccc1)SCc1ccccc1 (centres undefined) [CPI-613] + CC(=O)Nc1cccc(-n2c(=O)n(C3CC3)c(=O)c3c(Nc4ccc(I)cc4F)n(C)c(=O)c(C)c32)c1 [Trametinib] (partner 0.02 µM)", "NUMERIC RESULT": 0.477}

###

In this section, each of the compounds is paired with its reported relative viability.
System: HCC-827
Experiment: relative viability (nuclei count vs DMSO), 5 days (fraction); higher = more cells survive
Settings: first compound 50 µM

{"COMPOUND": "O=C(O)CCCCC(CCSCc1ccccc1)SCc1ccccc1 (stereo not drawn) [CPI-613] + N=C(N)NC(=N)NCCc1ccccc1 [Phenformin] (partner 250 µM)", "relative viability": 0.41}
{"COMPOUND": "O=C(O)CCCCC(CCSCc1ccccc1)SCc1ccccc1 (stereo not drawn) [CPI-613] + CCNC(=O)c1noc(-c2cc(C(C)C)c(O)cc2O)c1-c1ccc(CN2CCOCC2)cc1 [Luminespib] (partner 0.01 µM)", "relative viability": 0.774}
{"COMPOUND": "O=C(O)CCCCC(CCSCc1ccccc1)SCc1ccccc1 (stereo not drawn) [CPI-613] + O=C(c1cc(Cc2n[nH]c(=O)c3ccccc23)ccc1F)N1CCN(C(=O)C2CC2)CC1 [Olaparib] (partner 8 µM)", "relative viability": 0.691}
